# method description: Thermostability (Tm, Tonset, Tagg) by Nanotemper DSF
# Assay type: physicochemical
# Design: key: temperatures in °C
# details: Replicate 1
endpoint name: Tagg
Kindly provide the number alone.

SDAB22110-3-1-D9-1: anti-Fel d1 VHH clone, SEQ ID NO: 52 (protein) VHH: AVQLVESGGGLVQPGGSLRLSCIISGFTSVSYSIVWFRQAPGKGREGVSCIGSSGGSTDYIDSVKGRFTISRDSAKNTVYLQMDCLKPEDTAVYYCAALRDVYRLCVIDYMNNDYWGQGTQVTVSS | 42.76

Please find the next molecule below.
Which Tagg value belongs to SDAB22110-4-3-B02: anti-Fel d1 VHH clone, SEQ ID NO: 54 (protein) VHH: QVQLVESGGGLVQPGGSLRLSCVASGFTFSFYTMEWYRQAAGKQRELVAGLTASGTTHYADSAKGRFTISRDNAWNTVFLQMNGLKPEDTAVYYCNAYSGYRDYWGQGTQVTVSL ?
35.55

Origin of the recorded values: patent US20240352105A1
